- Target Desc: soluble epoxide hydrolase (sEH) (Homo sapiens)
- Sequence (P34913 1-555): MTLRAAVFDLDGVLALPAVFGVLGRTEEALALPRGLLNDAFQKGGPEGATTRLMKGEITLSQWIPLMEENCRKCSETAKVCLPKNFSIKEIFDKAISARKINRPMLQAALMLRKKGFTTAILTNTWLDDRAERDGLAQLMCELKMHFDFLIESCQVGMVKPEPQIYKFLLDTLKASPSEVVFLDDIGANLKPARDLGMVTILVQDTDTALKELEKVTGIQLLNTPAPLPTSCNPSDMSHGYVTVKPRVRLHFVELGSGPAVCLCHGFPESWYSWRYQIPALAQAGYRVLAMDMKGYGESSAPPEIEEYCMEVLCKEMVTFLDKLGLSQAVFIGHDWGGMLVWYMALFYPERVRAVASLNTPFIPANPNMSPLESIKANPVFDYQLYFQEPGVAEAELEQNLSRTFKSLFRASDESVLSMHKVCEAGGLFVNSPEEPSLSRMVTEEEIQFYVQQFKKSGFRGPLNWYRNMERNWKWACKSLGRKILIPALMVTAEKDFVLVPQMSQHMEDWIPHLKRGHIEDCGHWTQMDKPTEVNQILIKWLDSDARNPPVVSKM

| Molecule | IC50 |
| --- | --- |
| O=C(O)c1ccc(O)cc1 [Compound 8, 4-hydroxybenzoic acid] | 69.3 µM |
